Protocol Description: Transdermal delivery of melatonin: plasma level of melatonin after applying composition to skin of a subject
Setup Conditions: human, plasma, topical, 2 mL of […] melatonin suspension, Plasma level of melatonin, Helper esters: None (0 mM), 2.0 mL applied to skin, 4 hr after transdermal administration

Mol	concentration at 4 h (ng/mL)
COc1ccc2[nH]cc(CCNC(C)=O)c2c1	0.1

###

Protocol Description: Transdermal delivery of melatonin: plasma level of melatonin after applying composition to skin of a subject
Setup Conditions: human, plasma, topical, 3 mg, Plasma level of melatonin, Phenylalanine isopropyl ester hydrochloride 287.21 mM, 0.60 mL applied to skin, 1 hr after transdermal administration
Endpoint Label: concentration at 1 hr

Mol	Endpoint Label	Result
COc1ccc2[nH]cc(CCNC(C)=O)c2c1	concentration at 1 hr	1.6 ng/mL

###

Protocol Description: Transdermal delivery of melatonin: plasma level of melatonin after applying composition to skin of a subject
Setup Conditions: human, plasma, topical, 3 mg, Plasma level of melatonin, salt of tryptophan isopropyl ester, A− = Citrate ion, 159.67 mM, 0.30 mL applied, 8 hr after transdermal administration

Mol	concentration at 8 h (ng/mL)
COc1ccc2[nH]cc(CCNC(C)=O)c2c1	2.1

###

Protocol Description: Transdermal delivery of melatonin: plasma level of melatonin after applying composition to skin of a subject
Setup Conditions: human, plasma, topical, 3 mg, Plasma level of melatonin, salt of tryptophan isopropyl ester, A− = Br^−, 220.92 mM, 0.30 mL applied, 0 hr after transdermal administration
Endpoint Label: concentration at 0 h

Mol	Endpoint Label	Result
COc1ccc2[nH]cc(CCNC(C)=O)c2c1	concentration at 0 h	0 ng/mL

###

Protocol Description: Transdermal delivery of melatonin: plasma level of melatonin after applying composition to skin of a subject
Setup Conditions: human, plasma, topical, 3 mg, Plasma level of melatonin, Leucine hexyl ester hydrochloride 278.04 mM, 0.60 mL applied to skin, 8 hr after transdermal administration

Mol	concentration at 8 hr [ng/mL]
COc1ccc2[nH]cc(CCNC(C)=O)c2c1	1.3

###

Protocol Description: Transdermal delivery of melatonin: plasma level of melatonin after applying composition to skin of a subject
Setup Conditions: human, plasma, topical, Plasma level of melatonin, salt of tyrosine isopropyl ester, A− = I^−, 199.43 mM, 0.30 mL applied, 1 hr after transdermal administration
Endpoint Label: concentration at 1 h (ng/mL)

Compound	Endpoint Label	Measurement Units	Numeric Readout
COc1ccc2[nH]cc(CCNC(C)=O)c2c1 [Melatonin]	concentration at 1 h	ng/mL	2.1

###

Tested on: human skin tissue
Protocol Description: Penetration rate of AI compound in AI-helper composition through human skin in vitro, modified Franz cells
Format: in vitro ADME
Setup Conditions: with D-leucine isopropyl ester hydrochloride 6 % w/v in water; AI compound 0.5 % w/v; 25 °C
Experimental: Penetration rate of AI compound in the AI-helper composition through human skin were measured in vitro by modified Franz cells. A Franz cell had two chambers: the top sample chamber and the bottom receiving chamber. The human skin tissue (450-500 μm thick) that separated the top and the receiving chambers was isolated from the anterior or posterior thigh areas.
Endpoint Label: Skin penetration rate of AI compound (μg/cm^2/h)

Molecule	Target Or Test System	Measurement Units	Numeric Readout
N[C@@H](CCC(=O)N[C@@H](CS)C(=O)NCC(=O)O)C(=O)O	human skin tissue	μg/cm^2/h	14.121
Nc1nc2ncc(CNc3ccc(C(=O)N[C@@H](CCC(=O)O)C(=O)O)cc3)nc2c(=O)[nH]1	human skin tissue	μg/cm^2/h	5.523
NCCS(=O)(=O)O	human skin tissue	μg/cm^2/h	7.231
O=C(O)CCCCC1CCSS1 (stereo not shown)	human skin tissue	μg/cm^2/h	27.476
